Biological target: APOL1 G2 (Homo sapiens, UniProt O14791, DEL388-389)
Construct: expressed in transfected cells; host or cells: HEK293 T-REx clonal line stably expressing GCaMP6f (HEK T-REx/GCaMP6f/APOL1 G2 K6.3), doxycycline induced
Sequence (O14791 with tags, fused parts or gaps DEL388-389): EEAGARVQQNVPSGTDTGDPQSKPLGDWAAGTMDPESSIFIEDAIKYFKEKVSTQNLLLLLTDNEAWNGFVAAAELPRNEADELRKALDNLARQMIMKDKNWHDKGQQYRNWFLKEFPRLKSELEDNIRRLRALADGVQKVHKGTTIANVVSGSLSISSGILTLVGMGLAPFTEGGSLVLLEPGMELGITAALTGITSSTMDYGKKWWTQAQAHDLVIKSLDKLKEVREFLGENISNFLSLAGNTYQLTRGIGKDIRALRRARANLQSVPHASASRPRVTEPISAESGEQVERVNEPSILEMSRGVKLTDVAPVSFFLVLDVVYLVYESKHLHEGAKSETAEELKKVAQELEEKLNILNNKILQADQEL
Test: APOL1-mediated calcium transport (calcium influx) assay, HEK T-REx/GCaMP6f/APOL1 G2 K6.3 cells, FLIPR TETRA
Type: cell-based
Conditions: prevention of calcium influx; geometric mean of at least 2 assay runs; † = average of a technical replicate from a single assay run
Using AC50 as the sorting value, the categories are low end: < 600 nM; middle: ≥ 600 nM and < 800 nM; high end: ≥ 800 nM

{"compound": "C[C@]1(O)C[C@@H](n2c(=O)ccc3cc(OCCN4CCC5(CC4)C(=O)Nc4ccc(C(F)F)cc45)cnc32)C1", "category": "high end"}

Prompt: Given CN1C(=O)C(C)(C)c2cc(OCCN3CCC4(CC3)C(=O)Nc3ccc(C#N)cc34)ccc21 , name the class its AC50 places it in.
Completion: middle

Prompt: Given O=C1Nc2ccc(Cl)cc2C12CCN(CCOc1ccc3c(cnn3[C@H]3C[C@H](O)C3)c1)CC2 , name the class its AC50 places it in.
Completion: low end

Prompt: Given O=C1Nc2ccc(Cl)cc2C12CCN(CCOc1ccc3c(c1)CCNS3(=O)=O)CC2 , name the class its AC50 places it in.
Completion: low end

Prompt: Given C[C@]1(O)C[C@@H](n2c(=O)oc3cc(OCCN4CCC5(CC4)C(=O)Nc4ccc(Cl)cc45)cnc32)C1 , name the class its AC50 places it in.
Completion: low end

---

System: HEK293 cells overexpressing APOL1 G2
Experiment: APOL1 G2 HEK293 cell rescue assay (reversal of cell death caused by overexpression of APOL1)
Type: cell-based
Conditions: Homo sapiens, HEK293, HEK293 overexpressing APOL1 G2; geometric mean of at least 2 assay runs; † = single assay run
The threshold is 90 nM. Values of EC50 beneath it are tagged satisfied; values meeting or exceeding it are tagged not satisfied.

{"molecule": "CNC(=O)C1(c2ccc(OCCN3CCC4(CC3)C(=O)Nc3ccc(C#N)cc34)cc2)COC1", "category": "not satisfied"}
{"molecule": "C[C@]1(O)C[C@@H](N2C(=O)CCc3cc(OCCN4CCC5(CC4)C(=O)Nc4c(Cl)cc(Cl)cc45)cnc32)C1", "category": "satisfied"}
{"molecule": "C[C@]1(O)C[C@@H](n2c(=O)cnc3cc(OCCN4CCC5(CC4)C(=O)Nc4ccc(Cl)cc45)cnc32)C1", "category": "satisfied"}
{"molecule": "O=C1CCc2cc(OCCN3CCC4(CC3)C(=O)Nc3ccc(Cl)cc34)cnc2N1", "category": "not satisfied"}
{"molecule": "Cc1nc2cc(OCCN3CCC4(CC3)C(=O)Nc3ccc(C#N)cc34)cc(C(F)(F)F)c2n1[C@H]1C[C@@](C)(O)C1", "category": "satisfied"}

Prompt: Does CS(=O)(=O)c1ccc(OCCN2CCCC3(CC2)C(=O)Nc2ccccc23)cc1 (centres unmarked) have EC50 strictly under 90 nM?
Completion: not satisfied

Prompt: Does CN(C)C(=O)c1ccc(OCCN2CCC3(CC2)C(=O)Nc2ccc(Cl)cc23)cn1 have EC50 strictly under 90 nM?
Completion: not satisfied

Prompt: Does C[C@@H](COc1ccc(S(C)(=O)=O)cc1)N1CCC2(CC1)C(=O)Nc1ccccc12 (single isomer, unassigned) have EC50 strictly under 90 nM?
Completion: not satisfied

Prompt: Does CN1C(=O)C2(CCN(CCOc3cc(F)c(C(=O)N4CCS(=O)(=O)CC4)c(F)c3)CC2)c2cc(C#N)ccc21 have EC50 strictly under 90 nM?
Completion: not satisfied

Prompt: Does CC(O)c1ncc(OCCN2CCC3(CC2)C(=O)Nc2ccc(C#N)cc23)cc1C(F)(F)F (centres unmarked) [Compound 338] have EC50 strictly under 90 nM?
Completion: not satisfied

Prompt: Does CC(CO)(c1ncc(OCCN2CCC3(CC2)C(=O)Nc2ccc(Cl)cc23)cc1C(F)(F)F)S(C)(=O)=O (centres unmarked) have EC50 strictly under 90 nM?
Completion: satisfied

Prompt: Does CN1C(=O)C(C)(C)c2cc(OCCN3CCC4(CC3)C(=O)Nc3ccc(C#N)cc34)ccc21 have EC50 strictly under 90 nM?
Completion: not satisfied

Prompt: Does CS(=O)(=O)C1(c2ncc(OCCN3CCC4(CC3)C(=O)Nc3c(Cl)cc(Cl)cc34)cn2)CC1 have EC50 strictly under 90 nM?
Completion: not satisfied

Prompt: Does CC1(O)CN(c2ncc(OCCN3CCC4(CC3)C(=O)Nc3ccc(Cl)cc34)cc2C(F)(F)F)C1 have EC50 strictly under 90 nM?
Completion: satisfied

Prompt: Does COC(=O)C1(S(=O)(=O)c2ccc(OCCN3CCC4(CC3)C(=O)Nc3ccc(Cl)cc34)cc2)CC1 have EC50 strictly under 90 nM?
Completion: satisfied

Prompt: Does [2H]C([2H])([2H])N1C(=O)C2(CCN(CCOc3cnc4c(c3)CCC(=O)N4[C@H]3C[C@@H](O)C3)CC2)c2cc(Cl)ccc21 have EC50 strictly under 90 nM?
Completion: satisfied

Prompt: Does O=C(c1ccc(OCCN2CCC3(CC2)C(=O)Nc2ccc(Cl)cc23)cc1C(F)(F)F)N1CCS(=O)(=O)CC1 have EC50 strictly under 90 nM?
Completion: not satisfied

Prompt: Does CC(C)(C#N)c1ccc(OCCN2CCC3(CC2)C(=O)Nc2ccc(C#N)cc23)cc1 have EC50 strictly under 90 nM?
Completion: satisfied

Prompt: Does CC1(O)CC(n2ncc3cc(OCCN4CCC5(CC4)C(=O)Nc4ccc(Cl)cc45)cnc32)C1 (centres unmarked) have EC50 strictly under 90 nM?
Completion: satisfied

Prompt: Does CN1c2ccc(OCCN3CCC4(CC3)C(=O)Nc3ccc(C#N)cc34)cc2CCS1(=O)=O have EC50 strictly under 90 nM?
Completion: not satisfied

Prompt: Does C[C@]1(O)C[C@H](n2ncc3cc(OCCN4CCC5(CC4)C(=O)Nc4ccc(C#N)cc45)cnc32)C1 have EC50 strictly under 90 nM?
Completion: not satisfied

Prompt: Does CN1C(=O)C2(CCN(CCOc3ccc4c(c3)CCS4(=O)=O)CC2)c2ccccc21 have EC50 strictly under 90 nM?
Completion: not satisfied

Prompt: Does CC(c1ccc(OCCN2CCC3(CC2)C(=O)Nc2ccc(Cl)cc23)cc1)S(C)(=O)=O (single isomer, unassigned) [Compound 39] have EC50 strictly under 90 nM?
Completion: satisfied

---

Biological target: APOL1 G2 (Homo sapiens, UniProt O14791, DEL388-389)
Construct: expressed in transfected cells; host or cells: HEK293 T-REx clonal line stably expressing GCaMP6f (HEK T-REx/GCaMP6f/APOL1 G2 K6.3), doxycycline induced
Sequence (O14791 with tags, fused parts or gaps DEL388-389): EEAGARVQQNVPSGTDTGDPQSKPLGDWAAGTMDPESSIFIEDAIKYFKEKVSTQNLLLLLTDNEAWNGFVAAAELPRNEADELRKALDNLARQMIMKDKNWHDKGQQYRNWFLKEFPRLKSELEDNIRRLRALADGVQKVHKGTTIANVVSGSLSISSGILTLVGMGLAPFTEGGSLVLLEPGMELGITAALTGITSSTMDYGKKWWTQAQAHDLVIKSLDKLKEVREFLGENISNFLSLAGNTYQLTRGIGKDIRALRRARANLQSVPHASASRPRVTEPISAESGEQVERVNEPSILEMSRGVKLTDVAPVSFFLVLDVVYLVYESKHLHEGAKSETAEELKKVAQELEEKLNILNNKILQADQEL
Assay: APOL1-mediated calcium transport (calcium influx) assay, HEK T-REx/GCaMP6f/APOL1 G2 K6.3 cells, FLIPR TETRA
Assay type: cell-based
Details: prevention of calcium influx; geometric mean of at least 2 assay runs; † = average of a technical replicate from a single assay run
Source text: A HEK293 clonal cell line was generated to stably express GCaMP6f, a genetically encoded calcium indicator, and inducibly express APOL1 G2 (HEK T-REx/GCaMP6f/APOL1 G2 K6.3). […]
Overview of reported AC50 across a group of compounds:
Please state the figure in nM; there is no need to write the unit.

Record excerpt, results attached:
{"compound": "CN1C(=O)CCc2cc(OCCN3CCC4(CC3)C(=O)Nc3ccc(C#N)cc34)ccc21", "targetEntity": "APOL1 G2 (Homo sapiens, UniProt O14791, DEL388-389)", "unitTag": "nM", "AC50": 655}
{"compound": "CN(c1c(F)cc(OCCN2CCC3(CC2)C(=O)Nc2ccc(C#N)cc23)cc1F)S(C)(=O)=O", "targetEntity": "APOL1 G2 (Homo sapiens, UniProt O14791, DEL388-389)", "unitTag": "nM", "AC50": 537}
{"compound": "Cc1cc(OCCN2CCC3(CC2)C(=O)Nc2ccc(C#N)cc23)cnc1S(C)(=O)=O", "targetEntity": "APOL1 G2 (Homo sapiens, UniProt O14791, DEL388-389)", "unitTag": "nM", "AC50": 807}
{"compound": "CC(O)c1ncc(OCCN2CCC3(CC2)C(=O)Nc2ccc(Cl)cc23)cc1C(F)(F)F (single isomer, unassigned) [Compound 291]", "targetEntity": "APOL1 G2 (Homo sapiens, UniProt O14791, DEL388-389)", "unitTag": "nM", "AC50": 1190}
{"compound": "CC(COc1ccc(S(C)(=O)=O)cc1)N1CCC2(CC1)C(=O)N(C1CC(O)C1)c1ccc(Cl)cc12 (single isomer, unassigned) [Compound 209]", "targetEntity": "APOL1 G2 (Homo sapiens, UniProt O14791, DEL388-389)", "unitTag": "nM", "AC50": 1240}
{"compound": "CC(=O)N1CCCc2cc(OCCN3CCC4(CC3)C(=O)N(C)c3ccccc34)ccc21", "targetEntity": "APOL1 G2 (Homo sapiens, UniProt O14791, DEL388-389)", "unitTag": "nM", "AC50": 223}

Prompt: Please report AC50 for the following compound: C[C@]1(O)C[C@@H](n2c(=O)cc(C(F)(F)F)c3cc(OCCN4CCC5(CC4)C(=O)Nc4ccc(Cl)cc45)cnc32)C1
Completion: 1060
